test system: MP38; assay: 3-day growth inhibition (Cell-titer glow), MP38; assay type: cell-based; settings: 72 h; MP38, Uveal melanoma, 3 days; read-out: Absolute IC50
READOUT: IC50 (nM)
Give the value, in units of nM, as a plain number.

Note to self: IC50 recorded for `COC[C@H](NC(=O)c1ccn(S(C)(=O)=O)c1)C(=O)Nc1nc(-c2cccc(N3C[C@@H](C)O[C@@H](C)C3)n2)cs1` was 31.5

---

system: uveal melanoma, prostate cancer, acute leukemia and histocytic lymphoma cell lines; experiment: 3-day growth inhibition (Cell-titer glow), all cell lines of Example 17; format: cell-based; settings: 72 h; 3 days of compound treatment; read-out: absolute IC50 values, all cell lines tested
READOUT: IC50

Note to self: IC50 recorded for `COC[C@H](NC(=O)c1ccn(S(C)(=O)=O)c1)C(=O)Nc1nc(-c2cccc(N3C[C@@H](C)O[C@@H](C)C3)n2)cs1` was < 350 nM

These measurements were taken from patent US20240374605A1.
